Tested on: Artemia
Assay: Toxicity in brine shrimp
Format: organism-based
Details: in vivo
quantity-kind: LC50 (ppm)
Your answer is read as ppm, so omit the unit and give the number.

Fill in: LC50 of O=C(O)CCC(=O)O is ___
40

Fill in: LC50 of O=C(O)CC(O)(CC(=O)O)C(=O)O is ___
50

Fill in: LC50 of CC(O)(CC(=O)O)CC(=O)O is ___
228

Fill in: LC50 of COc1cc(-c2oc3cc(O[C@@H]4O[C@H](CO)[C@@H](O)[C@H](O)[C@H]4O)c(OC)c(O)c3c(=O)c2OC)cc(OC)c1O is ___
420
